# Test system: PBMC
# Assay Setup: 12.5 µM
Result Type: Average (percentage cell inhibition), Mastoparan PBMC (%)
Express your answer in %, writing the number without its unit.

# Item Smiles, Unit Abbrev, Value Observed
records = [
    ("CC[C@H](C)[C@H](N)C(=O)N[C@@H](CC(N)=O)C(=O)N[C@@H](CC(C)C)C(=O)N[C@@H](CCCCN)C(=O)N[C@@H](C)C(=O)N[C@@H](CC(C)C)C(=O)N[C@@H](C)C(=O)N[C@@H](C)C(=O)N[C@@H](CC(C)C)C(=O)N[C@@H](C)C(=O)N[C@@H](CCCCN)C(=O)N[C@@H](CCCCN)C(=O)N[C@H](C(=O)N[C@H](C(N)=O)C(C)C)[C@@H](C)CC", "%", 3.082),
    ("CC[C@H](C)[C@H](N)C(=O)N[C@@H](CC(N)=O)C(=O)N[C@@H](CC(C)C)C(=O)N[C@@H](CCCCN)C(=O)N[C@@H](C)C(=O)N[C@@H](CC(C)C)C(=O)N[C@@H](C)C(=O)N[C@@H](C)C(=O)N[C@@H](CC(C)C)C(=O)N[C@@H](C)C(=O)N1CCC[C@H]1C(=O)N[C@@H](CCCCN)C(=O)N[C@H](C(=O)N[C@@H](CC(C)C)C(N)=O)[C@@H](C)CC", "%", -9.695),
    ("CC[C@H](C)[C@H](NC(=O)[C@H](CCCCN)NC(=O)[C@H](CCCCN)NC(=O)[C@H](C)NC(=O)[C@H](CC(C)C)NC(=O)[C@H](C)NC(=O)[C@H](C)NC(=O)[C@H](CC(C)C)NC(=O)[C@H](C)NC(=O)[C@H](CCCCN)NC(=O)[C@H](CC(C)C)NC(=O)[C@H](CC(N)=O)NC(=O)[C@@H](N)CC(N)=O)C(=O)N[C@@H](CC(C)C)C(N)=O", "%", 8.003),
]

Consider the record given below.
query: Requested read-out: Average (percentage cell inhibition), Mastoparan PBMC. Entry: CC[C@H](C)[C@H](N)C(=O)N[C@@H](CC(N)=O)C(=O)N[C@@H](CC(C)C)C(=O)N[C@@H](CCCCN)C(=O)N[C@@H](C)C(=O)N[C@@H](CC(C)C)C(=O)N[C@@H](CCCNC(=N)N)C(=O)N[C@@H](C)C(=O)N[C@@H](CC(C)C)C(=O)N[C@@H](C)C(=O)N[C@@H](CCCCN)C(=O)N[C@@H](CCCCN)C(=O)N[C@H](C(=O)N[C@@H](CC(C)C)C(N)=O)[C@@H](C)CC
result: 3.182

###

In this section, each of the compounds is paired with its reported Average (percentage cell inhibition), Mastoparan PBMC.
# System: PBMC
# Assay Setup: 12.5 µM
Express your answer in %, writing the number without its unit.

As a guide, the following entries are already answered.
# Compound, Assay Target, Value Observed
records = [
    ("CC[C@H](C)[C@H](N)C(=O)N[C@@H](CC(N)=O)C(=O)N[C@@H](CC(C)C)C(=O)N[C@@H](CCCCN)C(=O)N[C@@H](CCCNC(=N)N)C(=O)N[C@@H](CC(C)C)C(=O)N[C@@H](C)C(=O)N[C@@H](C)C(=O)N[C@@H](CC(C)C)C(=O)N[C@@H](C)C(=O)N[C@@H](CCCCN)C(=O)N[C@@H](CCCCN)C(=O)N[C@H](C(=O)N[C@@H](CC(C)C)C(N)=O)[C@@H](C)CC [R5]", "PBMC", -0.4192),
    ("CC[C@H](C)[C@H](N)C(=O)N[C@@H](CC(N)=O)C(=O)N[C@@H](CC(C)C)C(=O)N[C@@H](CCCCN)C(=O)N[C@@H](C)C(=O)N[C@@H](Cc1ccc(O)cc1)C(=O)N[C@@H](C)C(=O)N[C@@H](C)C(=O)N[C@@H](CC(C)C)C(=O)N[C@@H](C)C(=O)N[C@@H](CCCCN)C(=O)N[C@@H](CCCCN)C(=O)N[C@H](C(=O)N[C@@H](CC(C)C)C(N)=O)[C@@H](C)CC [Y6]", "PBMC", -4.904),
]

query: Requested read-out: Average (percentage cell inhibition), Mastoparan PBMC. Entry: CC[C@H](C)[C@H](N)C(=O)N[C@@H](CCCNC(=N)N)C(=O)N[C@@H](CC(C)C)C(=O)N[C@@H](CCCCN)C(=O)N[C@@H](C)C(=O)N[C@@H](CC(C)C)C(=O)N[C@@H](C)C(=O)N[C@@H](C)C(=O)N[C@@H](CC(C)C)C(=O)N[C@@H](C)C(=O)N[C@@H](CCCCN)C(=O)N[C@@H](CCCCN)C(=O)N[C@H](C(=O)N[C@@H](CC(C)C)C(N)=O)[C@@H](C)CC [R2]
result: 6.823
